tested on: Plasma; test: Dose normalized AUC (0 to 24 hrs) in mouse plasma assessed as 2'-C-MeU level at 10 mg/kg, po administered as single dose; type: ADME, organism-based; details: in vivo
# key: entry, value: AUC/dose

Illustrative cases are given below, each with its answer.
INSERT INTO measurements (compound, observed_value) VALUES
  ('CC(C)(CO)C(=O)SCCO[P@](=O)(NCc1ccccc1)OC[C@H]1O[C@@H](n2ccc(=O)[nH]c2=O)[C@](C)(Cl)[C@@H]1O', '590 pmol·h/mL'),
  ('CC(C)(CO)C(=O)SCCOP(=O)(NCc1ccccc1)OC[C@H]1O[C@@H](n2cnc3c(=O)[nH]c(N)nc32)[C@](C)(O)[C@@H]1O (stereo partly specified)', '45 pmol·h/mL'),
  ('C[C@@H](N[P@@](=O)(OC[C@H]1O[C@@H](n2ccc(=O)[nH]c2=O)[C@](C)(Cl)[C@@H]1O)Oc1ccccc1)C(=O)OCc1ccccc1', '1400 pmol·h/mL'),
  ('CC(C)OC(=O)[C@H](C)N[P@](=O)(OC[C@H]1O[C@@H](n2ccc(=O)[nH]c2=O)[C@](C)(F)[C@@H]1O)Oc1ccccc1 [SOFOSBUVIR]', '330 pmol·h/mL'),
  ('CCOC(=O)[C@H](C)N[P@@](=O)(OC[C@H]1O[C@@H](n2ccc(=O)[nH]c2=O)[C@](C)(Cl)[C@@H]1O)Oc1ccccc1', '1100 pmol·h/mL');

The record that follows has no AUC/dose shown yet.
(Q) Param item = `CC(C)(CO)C(=O)SCCO[P@@](=O)(NCc1ccccc1)OC[C@H]1O[C@@H](n2ccc(=O)[nH]c2=O)[C@](C)(Cl)[C@@H]1O` ; retrieve measured AUC/dose.
(A) 930 pmol·h/mL
